Cited source for all entries: patent US20230257396A1

target: kinases (Homo sapiens, UniProt P07949, M918T); construct: purchased Eurofins/DiscoveRx; host or cells: E. coli BL21-derived host (T7 phage display) for most kinases; HEK-293 for the rest; test: KINOMEscan kinase binding assay (Eurofins/DiscoveRx), % Ctrl; conditions: 1 μM; RET(M918T)
Sequence (P07949 29-1114 M918T): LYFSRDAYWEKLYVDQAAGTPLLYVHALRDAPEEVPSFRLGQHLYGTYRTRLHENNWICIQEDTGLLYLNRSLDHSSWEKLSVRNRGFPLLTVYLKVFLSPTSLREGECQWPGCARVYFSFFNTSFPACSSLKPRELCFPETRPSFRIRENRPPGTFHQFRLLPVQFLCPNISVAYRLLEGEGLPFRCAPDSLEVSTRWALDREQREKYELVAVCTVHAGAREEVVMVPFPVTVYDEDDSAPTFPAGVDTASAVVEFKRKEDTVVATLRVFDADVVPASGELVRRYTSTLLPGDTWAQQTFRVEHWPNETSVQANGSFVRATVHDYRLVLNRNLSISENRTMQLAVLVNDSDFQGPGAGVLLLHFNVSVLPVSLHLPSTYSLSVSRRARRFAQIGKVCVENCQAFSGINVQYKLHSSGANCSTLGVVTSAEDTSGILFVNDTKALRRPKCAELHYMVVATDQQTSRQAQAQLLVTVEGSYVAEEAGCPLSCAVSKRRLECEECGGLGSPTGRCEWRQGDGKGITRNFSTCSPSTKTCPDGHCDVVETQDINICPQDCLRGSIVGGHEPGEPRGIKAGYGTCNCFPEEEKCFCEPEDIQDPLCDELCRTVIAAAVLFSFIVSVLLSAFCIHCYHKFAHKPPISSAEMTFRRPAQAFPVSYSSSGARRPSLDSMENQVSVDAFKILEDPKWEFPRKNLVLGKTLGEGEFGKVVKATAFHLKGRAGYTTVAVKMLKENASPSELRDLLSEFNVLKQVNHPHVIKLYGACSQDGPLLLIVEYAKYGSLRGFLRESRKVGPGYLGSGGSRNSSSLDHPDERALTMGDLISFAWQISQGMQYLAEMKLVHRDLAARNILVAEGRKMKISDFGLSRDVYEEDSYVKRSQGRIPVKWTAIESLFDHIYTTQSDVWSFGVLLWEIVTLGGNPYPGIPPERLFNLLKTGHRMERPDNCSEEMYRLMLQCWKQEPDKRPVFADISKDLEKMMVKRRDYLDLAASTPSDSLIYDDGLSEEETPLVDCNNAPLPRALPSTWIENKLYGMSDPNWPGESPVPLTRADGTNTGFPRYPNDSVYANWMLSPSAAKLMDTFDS
Quick reference: % Ctrl, RET(M918T) of the listed items.
Please respond with the number in % Ctrl and leave the unit unwritten.

Reference set, count: 2
[[record]]
structure_smiles = "Cc1cc2c([nH]1)/C=C1\\C(=O)Nc3ccc(cc31)-c1ccnn1CCOCCN(C)C2=O"
reported_measurement = 45

[[record]]
structure_smiles = "Cc1cc2c([nH]1)/C=C1\\C(=O)Nc3cc(Cl)c(cc31)OCCO[C@@H](C(=O)NC1CNC1)CN(C)C2=O"
reported_measurement = 26


(Q) Could you tell me which % Ctrl, RET(M918T) is on file for Cc1cc2c([nH]1)/C=C1\C(=O)Nc3cc(Cl)c(cc31)OCCOCCN(C)C2=O ?
(A) 0

(Q) Could you tell me which % Ctrl, RET(M918T) is on file for Cc1cc2c([nH]1)/C=C1\C(=O)Nc3ccc(cc31)OCCOCCNC2=O ?
(A) 100

(Q) Could you tell me which % Ctrl, RET(M918T) is on file for Cc1cc2c([nH]1)/C=C1\C(=O)Nc3cc(Cl)c(cc31)OCCO[C@@H](C(=O)N(C)C)CN(C)C2=O ?
(A) 6.4

(Q) Could you tell me which % Ctrl, RET(M918T) is on file for Cc1cc2c([nH]1)/C=C1\C(=O)Nc3ccc(cc31)-c1c(C)n[nH]c1CNCCN(C)C2=O ?
(A) 2.1

(Q) Could you tell me which % Ctrl, RET(M918T) is on file for CNC(=O)[C@H]1CN(C)C(=O)c2cc(C)[nH]c2/C=C2\C(=O)Nc3cc(Cl)c(cc32)OCCO1 ?
(A) 36

(Q) Could you tell me which % Ctrl, RET(M918T) is on file for Cc1cc2c([nH]1)/C=C1\C(=O)Nc3ccc(cc31)CN(C)C(=O)COCCNC2=O ?
(A) 76

(Q) Could you tell me which % Ctrl, RET(M918T) is on file for Cc1cc2c([nH]1)/C=C1\C(=O)Nc3cnc(cc31)-c1cnn(C)c1COCCNC2=O ?
(A) 89

(Q) Could you tell me which % Ctrl, RET(M918T) is on file for Cc1cc2c([nH]1)/C=C1\C(=O)Nc3ccc(cc31)-c1cnn(C)c1CNCCN(C)C2=O ?
(A) 0

(Q) Could you tell me which % Ctrl, RET(M918T) is on file for Cc1cc2c([nH]1)/C=C1\C(=O)Nc3cc(Cl)c(cc31)OCCO[C@@H](C(=O)N[C@@H]1CCNC1)CN(C)C2=O ?
(A) 25

(Q) Could you tell me which % Ctrl, RET(M918T) is on file for Cc1cc2c([nH]1)/C=C1\C(=O)Nc3ccc(cc31)OCCOCCN(C)C2=O ?
(A) 7

(Q) Could you tell me which % Ctrl, RET(M918T) is on file for Cc1cc2c([nH]1)/C=C1\C(=O)Nc3ccc(cc31)-c1ccnn1CCOCCNC2=O ?
(A) 97

----------
biological target: kinases (Homo sapiens, UniProt P00533, L861Q); construct: purchased Eurofins/DiscoveRx; host or cells: E. coli BL21-derived host (T7 phage display) for most kinases; HEK-293 for the rest; assay: KINOMEscan kinase binding assay (Eurofins/DiscoveRx), % Ctrl; settings: 1 μM; EGFR(L861Q)
experimental.readout: % Ctrl, EGFR(L861Q) (% Ctrl)
Please respond with the number in % Ctrl and leave the unit unwritten.

Reference set, count: 4
[[record]]
compound = "Cc1cc2c([nH]1)/C=C1\\C(=O)Nc3cc(Cl)c(cc31)OCCOCCN(C)C2=O [Ex. 131]"
target_of_assay = "kinases (Homo sapiens, UniProt P00533, L861Q)"
reported_measurement = 78

[[record]]
compound = "Cc1cc2c([nH]1)/C=C1\\C(=O)Nc3cc(Cl)c(cc31)OCCO[C@@H](C(=O)NC1CNC1)CN(C)C2=O [Ex. 133]"
target_of_assay = "kinases (Homo sapiens, UniProt P00533, L861Q)"
reported_measurement = 97

[[record]]
compound = "Cc1cc2c([nH]1)/C=C1\\C(=O)Nc3ccc(cc31)-c1c(C)n[nH]c1CNCCN(C)C2=O [Ex. 127]"
target_of_assay = "kinases (Homo sapiens, UniProt P00533, L861Q)"
reported_measurement = 73

[[record]]
compound = "Cc1cc2c([nH]1)/C=C1\\C(=O)Nc3cnc(nc31)N(C)CCCOCCN(C)C2=O [Ex.71]"
target_of_assay = "kinases (Homo sapiens, UniProt P00533, L861Q)"
reported_measurement = 80


(Q) Could you tell me which % Ctrl, EGFR(L861Q) is on file for Cc1cc2c([nH]1)/C=C1\C(=O)Nc3ccc(cc31)-c1ccnn1CCOCCNC2=O [Ex.39] ?
(A) 68

(Q) Could you tell me which % Ctrl, EGFR(L861Q) is on file for Cc1cc2c([nH]1)/C=C1\C(=O)Nc3ccc(cc31)O[C@@H](C)COCCN(C)C2=O [Ex. 92] ?
(A) 100

----------
Quick reference: % Ctrl, FLT3(N841I) of the listed items.
target: kinases (Homo sapiens, UniProt P36888, N841I); construct: purchased Eurofins/DiscoveRx; host or cells: E. coli BL21-derived host (T7 phage display) for most kinases; HEK-293 for the rest; assay: KINOMEscan kinase binding assay (Eurofins/DiscoveRx), % Ctrl; conditions: target FLT3(N841I); 1 μM
Please respond with the number in % Ctrl and leave the unit unwritten.

Reference set, count: 3
[[record]]
structure_smiles = "Cc1cc2c([nH]1)/C=C1\\C(=O)Nc3cc(Cl)c(cc31)OCCO[C@@H](C(=O)N1CCN(C)CC1)CN(C)C2=O"
experimental_readout = "% Ctrl, FLT3(N841I)"
reported_measurement = 68

[[record]]
structure_smiles = "Cc1nn(C)c2c1-c1ccc3c(c1)/C(=C/c1[nH]ccc1C(=O)N(C)CCCO2)C(=O)N3"
experimental_readout = "% Ctrl, FLT3(N841I)"
reported_measurement = 19

[[record]]
structure_smiles = "Cc1cc2c([nH]1)/C=C1\\C(=O)Nc3ccc(cc31)-c1c(C)nn(C)c1COCCN(C)C2=O"
experimental_readout = "% Ctrl, FLT3(N841I)"
reported_measurement = 0


Consider the additional molecule presented here.
(Q) Could you tell me which % Ctrl, FLT3(N841I) is on file for Cc1cc2c([nH]1)/C=C1\C(=O)Nc3ccc(cc31)-c1c(noc1C)CNCCN(C)C2=O ?
(A) 12

----------
Quick reference: % Ctrl, FLT3(ITD, F691L) of the listed items.
test system: kinases; assay: KINOMEscan kinase binding assay (Eurofins/DiscoveRx), % Ctrl; conditions: 1 μM; FLT3(ITD, F691L)
Please respond with the number in % Ctrl and leave the unit unwritten.

Reference set, count: 4
[[record]]
compound = "Cc1cc2c([nH]1)/C=C1\\C(=O)Nc3ccc(cc31)-c1ccnn1CCOCCN(C)C2=O [Ex. 41]"
reported_measurement = 0.35

[[record]]
compound = "CNC(=O)[C@H]1CN(C)C(=O)c2cc(C)[nH]c2/C=C2\\C(=O)Nc3cc(Cl)c(cc32)OCCO1 [Ex. 135]"
reported_measurement = 25

[[record]]
compound = "Cc1cc2c([nH]1)/C=C1\\C(=O)Nc3cnc(cc31)-c1cnn(C)c1COCCNC2=O [Ex.123]"
reported_measurement = 39

[[record]]
compound = "Cc1cc2c([nH]1)/C=C1\\C(=O)Nc3cc(Cl)c(cc31)OCCO[C@@H](C(=O)NC1CNC1)CN(C)C2=O [Ex. 133]"
reported_measurement = 5.6


(Q) Could you tell me which % Ctrl, FLT3(ITD, F691L) is on file for Cc1cc2c([nH]1)/C=C1\C(=O)Nc3cnc(nc31)N(C)CCCOCCN(C)C2=O [Ex.71] ?
(A) 100

----------
biological target: kinases (Homo sapiens, UniProt P00533, T790M); construct: purchased Eurofins/DiscoveRx; host or cells: E. coli BL21-derived host (T7 phage display) for most kinases; HEK-293 for the rest; test: KINOMEscan kinase binding assay (Eurofins/DiscoveRx), % Ctrl; details: 1 μM; EGFR(T790M)
Quick reference: % Ctrl, EGFR(T790M) of the listed items.
Please respond with the number in % Ctrl and leave the unit unwritten.

[[record]]
compound = "Cc1cc2c([nH]1)/C=C1\\C(=O)Nc3cc(Cl)c(cc31)OCCOCCN(C)C2=O [Ex. 131]"
units_symbol = "% Ctrl"
reported_measurement = 61

[[record]]
compound = "Cc1cc2c([nH]1)/C=C1\\C(=O)Nc3ccc(cc31)-c1cnn(C)c1COCCN(C)C2=O [Ex. 124]"
units_symbol = "% Ctrl"
reported_measurement = 8.5

[[record]]
compound = "Cc1cc2c([nH]1)/C=C1\\C(=O)Nc3cc(Cl)c(cc31)OCCO[C@@H](C(=O)NC1CNC1)CN(C)C2=O [Ex. 133]"
units_symbol = "% Ctrl"
reported_measurement = 98


(Q) Could you tell me which % Ctrl, EGFR(T790M) is on file for Cc1cc2c([nH]1)/C=C1\C(=O)Nc3ccc(cc31)-c1cnn(C)c1CN(C)CCN(C)C2=O [Ex. 126] ?
(A) 1.6
